Tested on: HEK293 cells
Type: cell-based, human
Condition notes: luminescence from secreted Gluc in supernatant 24 hours after transfection of HEK293 cells; circular RNA encoding Gluc with the named IRES (UTR truncated to 675 nt)
Expression strictly under 200000 means met; at 200000 or over means not met.

Use the examples below as a reference point.
molecule="Pestivirus strain Aydin (nucleic acid, listed as Pestivirus sp.) DNA: GTATACGAGATTAGCTCATACTCGTGTACAAATTGGACGTAGCAAATTTAAAAATTCGGATAGGGTCCCCATCCAGCGACGGCCGAACGGGGTTAACCATACCTCTAGTAGGACTAGCAGACGGATGGACTAGCCACAGTGGTGAGCTCCCTGGGAGGTCTAAGTTCTGAGTACAGAACAGTCGTCAGTAGTTCAACGCTGGTAAACCCCAGCCTTGAGATGCTACGTGGACGAGGGCATGCCCAAGACACACCTTAACCTGGACGGGGGTCGTCCAGGTGAAAGTACCCATCTTTGGGTGCTGGGAGTACAGCCTGATAGGGCGCTGCAGAGGCCCACTGACAGGCTAGTATAAAAATCTCTGCTGTACATGGAAC" group="not met"
molecule="Chicken calicivirus (nucleic acid) DNA: GGTGCATCATCACTGAACACCCTCGGGCAGAGATGCAAGGGTGGAAGTCACTCCTGCCCCCTGGCAACATGCAGGTGCCCGATCCCAAGCTTAGTTCTGACTTCCTCTCCTGGGTGGTGCAACACTCCAAGGTTGATGAACAAACCTGGAGGGACCTCTGGGCAACCTGGTCTCTCGAGGATCTCCGGCGCATCTCCACAGACTACCTCATGCTCCCGGAACCTGAGAAGAACACTGATGCCTATGATGGCTGGCTGATGGTCGGCGAGATGTTGACCTTTGCCGGTCTCATTGGCTGGGAGG" group=met
molecule="Dianke virus (nucleic acid) DNA: TGTTTTCAACCATAATACTACTACTACAAGTATAAAACCCCGTCCGTCTGTCGGAGACGCTAAACTCTGACCACCAATCTAGCCACATCAGTTGCTTAAAGAACCTCTTGAGACACTCTCCCACTTAACATCTTTTAGGAATCTTCGATGCTACAACAACTTGGCTAGTGAACAATAAATCCGTACAATTCACAGTTGTAAGAGGCCATAGGTCCAGACTTTGAAAGGTTTGTTTCTATTGTTACAAATACTTAGATTAACAGAGGCTATTTAATAGTGCTCATCACGTTAACAGAGTAACCTTGTGCAATAGTATGAGCTTGTTGTAAAACGTCTTGATACGACACC" group=met
molecule="Equine arteritis virus (nucleic acid) DNA: GCTCGAAGTGTGTATGGTGCCATATACGGCTCACCACCATATACACTGCAAGAATTACTATTCTTGTGGGCCCCTCTCGGTAAATCCTAGAGGGCTTTCCTCTCGTTATTGCGAGATTCGTCGTTAGATAACGGCAAGTTCCCTTTCTTACTATCCTATTTTCATCTTGTGGCTTGACGGGTCACTGCCATCGTCGTCGATCTCTATCAACTACCCTTGCGACT" group=met
molecule="Bat Hp-betacoronavirus (nucleic acid, Bat Hp-betacoronavirus) DNA: TTAAGCTTCGGCTTGTTGCATAGGACCGGAAAGGTACTATCTACCCTAACTCTTGTAGTTAGACTCTCTAAACGAACTTTAAAACTGGTTGTGTCCTTCAGTAGTCTGTATGGCCATTGGAGGCACACCGGTAATTATCAAATACTAAGAAGATTCATAGTACATCCTTGTCTAGCTTTTGGTTGGCAGTGAGCCTACGGTTTCGTCCGTGTCGCTCACAATTATCCACACAGTAGGTTTCGTCCGCTGTGGTTGAGTTGCTAGTCCGTTGCTGTTTCGTCAGCCATCTACAACTCGACACC" group=met
molecule="Camel alphacoronavirus (nucleic acid, listed as Alphacoronavirus sp.) DNA: CTTAAGTGTCTTATCTATCTATAGATAGAAAAGTCGCTTTTTAGACTTTGTGTCTACTCTTCTCAACTAAACGAAATTTTTGCTACGGCCGGCATCTCTGATGCTGGAGTCGTGGCGTAATTGAAATTTCATTTGGGTTGCAACAGTTTGGAAATAAGTGCTGTGCGTCCTAGTCTAAGGGTTCTGTGTTCTGTCACGGGATTCCATTCTACAAACGCCTTACTCGAGGTTCTGTCTCGTGTTTGTGTGGAAGCAAAGTTCTGTCTTTGTGGAAACCAGTAACTGTTCCTA" group="not met"
molecule="Bussuquara virus (nucleic acid, chemistry not fully specified; the letters are possibly those of the target site) DNA: AGTATTTCTTCTGCGTGAGACCATTGCGACAGTTCGTACCGGTGAGTTTTGACTTAACGCAGTGAGAAAAGTTTTCGAGGAAAGACGAGAAGCGAATTCTCTGA" group=met

Decide: Expression of Bat sapelovirus (nucleic acid, listed as Sapelovirus sp.) DNA: GACAGGTGTTTTGGAGGGCGGATGACGATATCTGGCTGGCCACCAGGGAATAACGGCAAATGTCTGATCATACGGTTCACAAGTCTACCGGCGATAGTGGTTCAACACCATGTGTAGCAGGGATTCTTGCGTATGTGAAGGCGACAGTGC strictly below 200000? met

Recorded values, source patent US20230226096A1.
